# Test System: Aspartate--tRNA(Asp/Asn) ligase (Mycobacterium tuberculosis (strain ATCC 25618 / H37Rv)); further: in the data most compounds retested in dose-response had high values
# Measurement Notes: Assay for Asp RNA synthetase-1 from Mycobacterium tuberculosis
# Type: functional
# Design: scale not given: direction of the effect not stated beside the values
# Study Conditions: 30 µM
Readout Label: Percent Effect
Answer shape: numeric part, then the unit.

Would you please look over these solved cases?
[[record]]
compound = "Cn1ccnc1COc1ccc(CO)cc1"
readout_label = "Percent Effect"
observed_measurement = "1.33%"

[[record]]
compound = "O=C(c1cccnc1O)N(Cc1ccsc1)CC1CCCO1 (stereo not drawn)"
readout_label = "Percent Effect"
observed_measurement = "-1.37%"

[[record]]
compound = "O=C(c1ccc(Br)s1)N1CCN(Cc2ccc(OC(F)(F)F)cc2)CC1"
readout_label = "Percent Effect"
observed_measurement = "-3.13%"

[[record]]
compound = "COc1c(CNC2CCOc3ccccc32)c(C(C)C)nn1C (stereo not drawn)"
readout_label = "Percent Effect"
observed_measurement = "0.728%"

[[record]]
compound = "O=C(c1ccccn1)N1C[C@@H]2CC[C@H](C1)N(C(=O)CCc1cccs1)C2"
readout_label = "Percent Effect"
observed_measurement = "12%"

[[record]]
compound = "COCCNS(=O)(=O)c1ccc2c(c1)CCN(C(=O)c1cncn1C)C2"
readout_label = "Percent Effect"
observed_measurement = "0.891%"

[[record]]
compound = "CC(=O)NCCNC(=O)CN1CCN(Cc2nccn2C)C(C)C1 (stereo not drawn)"
readout_label = "Percent Effect"
observed_measurement = "2.19%"

[[record]]
compound = "Cn1ccnc1CN1CCN(Cc2cc(C#N)ccc2F)CC1"
readout_label = "Percent Effect"
observed_measurement = "-5.71%"

[[record]]
compound = "Cc1nnc2n1CCN(C(=O)c1cn(-c3ccccc3Cl)nn1)C2"
readout_label = "Percent Effect"
observed_measurement = "-0.98%"

[[record]]
compound = "Cc1cnc2n(c1=O)CC(C(=O)NC1CC1)CS2 (stereo not drawn)"
readout_label = "Percent Effect"
observed_measurement = "-3.65%"


Give Percent Effect for each of the items listed below.
1. NC(=O)C1CN(C(=O)Nc2cc(Cl)cc(Cl)c2)CCO1 (stereo not drawn)
2. O=C(NCCc1cccc(O)c1)NC1CCN(c2ccccc2)C1=O (stereo not drawn)

1.82%
-2.7%

Please give measured Percent Effect of the following entry: CCOC(CC)C(=O)NCCC(=O)N1CCN(c2ncccn2)CC1 (stereo not drawn)
1.17%

* * *

# Test System: Shiga toxin 2 (Escherichia coli O157:H7) (UniProt P09385+P09386)
# Measurement Notes: E. coli 0.157:H7 Shiga Toxin SOP - stx2 screening assay
# Format: functional
# Set-up: scale not given: direction of the effect not stated beside the values
# Study Conditions: 30 µM
Readout Label: Percent Effect (%)
Give bare numbers, in %.

Would you please look over these solved cases?
[[record]]
input_smiles = "COc1ccnc(N2CCN(C(=O)c3csc(C4CC4)n3)CC2)n1"
observed_measurement = -2.7

[[record]]
input_smiles = "O=C(NC1CCC1)[C@@H]1CCO[C@@H]2CCN(CCc3ccccc3)C[C@H]21"
observed_measurement = -26.8

[[record]]
input_smiles = "Cc1cccc2nc(C(=O)N3CCC(Nc4cccnn4)CC3)cn12"
observed_measurement = 8.8


// next entry
Please give measured Percent Effect of the following entry: Cc1ccc(C)c(NC(=O)N(C)Cc2cnn(C)c2)c1
19.8

* * *

# Test System: Aspartate--tRNA(Asp/Asn) ligase (Mycobacterium tuberculosis (strain ATCC 25618 / H37Rv)); further: in the data most compounds retested in dose-response had high values
# Measurement Notes: Assay for Asp RNA synthetase-1 from Mycobacterium tuberculosis
# Format: functional
# Parameters: scale not given: direction of the effect not stated beside the values
# Study Conditions: 30 µM
Readout Label: Percent Effect (%)
One number for each entry, in %.

Give Percent Effect for each of the items listed below.
1. CC1c2ncc(COc3cccnc3)n2CCN1C(=O)Cc1ccco1 (centres undefined)
2. Cc1ccc(CNS(=O)(=O)CC2=NC(=O)n3cccc3C2=O)cc1
3. Nc1cc(CCC2CN(Cc3ccc(C(=O)O)cc3)CCO2)ccn1 (centres undefined)
4. Cn1cnnc1S(=O)(=O)C1CCN(S(=O)(=O)c2c(Cl)cccc2Cl)CC1

-1.45
3.72
2.72
-0.575

Give Percent Effect for each of the items listed below.
1. CN(CC1CCCCC1)C(=O)c1ccc(-n2ncc(C#N)c2N)cc1
2. O=C(C1CCCc2[nH]ncc21)N1CCCCCC1 (centres undefined)
3. CNc1cncc(C2CCCN2Cc2c[nH]cn2)n1 (centres undefined)
4. CC(C)(C)c1nnc(CN2CCOC(Cn3cccn3)C2)o1 (centres undefined)
5. CO[C@H]1CCN(c2ccc(C)nn2)[C@H]1Cc1cnn(C)c1

[-2.55, -0.324, 7.49, -6.74, 1.39]

* * *

# Test System: Chromo domain-containing protein 1 (Saccharomyces cerevisiae (strain ATCC 204508 / S288c) (Baker's yeast))
# Measurement Notes: ScCHD-1 Enzyme Inhibition Assay; further: in the data most compounds retested in dose-response had high values
# Format: functional
# Design: scale not given: direction of the effect not stated beside the values
# Study Conditions: 30 µM
Readout Label: Percent Effect (%)
Answers are plain numbers, in %.

Would you please look over these solved cases?
[[record]]
molecule = "COc1ncccc1CN1C[C@@H]2COC[C@]2(COCC2CC2)C1"
readout_label = "Percent Effect"
measure_unit = "%"
observed_measurement = -9.86

[[record]]
molecule = "CNC(=O)[C@@]12CCCN(c3ncccn3)[C@@H]1CN(C)C2"
readout_label = "Percent Effect"
measure_unit = "%"
observed_measurement = -2.69

[[record]]
molecule = "Cc1cc(CN2CC[C@H]3C[C@H](C)O[C@@H]3C2)no1"
readout_label = "Percent Effect"
measure_unit = "%"
observed_measurement = 1.93

[[record]]
molecule = "O=C(Cc1csc(-c2ccco2)n1)N1CCN(CCO)CC1"
readout_label = "Percent Effect"
measure_unit = "%"
observed_measurement = -4.16

[[record]]
molecule = "COCC(=O)NC1CC2(CCN(CCF)CC2)Oc2ccccc21 (stereo not drawn)"
readout_label = "Percent Effect"
measure_unit = "%"
observed_measurement = -22.9


Give Percent Effect for each of the items listed below.
1. Cn1cc(C(=O)N2CC[C@@H]3[C@@H]2CCN3Cc2cccnc2)cn1
2. CN(C)CCN1CCCC12CCN(C(=O)c1cccnc1)CC2

0.704
1.23

Give Percent Effect for each of the items listed below.
1. Cc1nn(C)c(N(C)C)c1CNC(C)Cc1c(F)cccc1F (stereo not drawn)
2. Cc1noc(C)c1CN1CCOC2(CCCN(c3nccs3)C2)C1 (stereo not drawn)
3. Cn1cc(CN2CC[C@H]3CO[C@H](CNc4ncccn4)[C@H]3C2)cn1
4. O=C(N[C@H]1CN[C@H]2CCCO[C@H]21)c1ccno1
5. CN(C)C(=O)COC[C@H]1CC[C@@H]2[C@@H](CCN2Cc2ccccn2)O1
6. CC(C)=CCN1C(=O)[C@H]2CC[C@@H]1CN(Cc1cccnc1N)C2

[-9.67, -4.72, -6.99, 2.08, -2.81, 2.83]

* * *

# Test System: Aspartate--tRNA(Asp/Asn) ligase (Mycobacterium tuberculosis (strain ATCC 25618 / H37Rv)) (UniProt P9WFW3); further: in the data most compounds retested in dose-response had high values
# Sequence (P9WFW3 whole entry): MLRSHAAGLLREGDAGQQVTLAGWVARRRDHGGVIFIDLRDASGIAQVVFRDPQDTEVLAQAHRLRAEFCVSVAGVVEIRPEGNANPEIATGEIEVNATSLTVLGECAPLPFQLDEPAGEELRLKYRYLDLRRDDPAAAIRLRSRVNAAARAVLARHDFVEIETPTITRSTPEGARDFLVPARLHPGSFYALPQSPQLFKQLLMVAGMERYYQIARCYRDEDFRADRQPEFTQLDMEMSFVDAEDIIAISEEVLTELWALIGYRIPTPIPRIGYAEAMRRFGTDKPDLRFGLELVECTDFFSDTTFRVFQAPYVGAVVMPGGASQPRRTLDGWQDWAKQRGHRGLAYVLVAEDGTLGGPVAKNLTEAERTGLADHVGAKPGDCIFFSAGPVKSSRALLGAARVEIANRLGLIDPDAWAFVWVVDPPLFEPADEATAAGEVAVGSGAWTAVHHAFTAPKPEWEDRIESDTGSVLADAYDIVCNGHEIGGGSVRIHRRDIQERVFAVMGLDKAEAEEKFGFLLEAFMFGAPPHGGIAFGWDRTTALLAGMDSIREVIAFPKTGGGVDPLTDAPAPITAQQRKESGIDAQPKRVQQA
# Measurement Notes: Assay for Asp RNA synthetase-1 from Mycobacterium tuberculosis
# Format: functional
# Parameters: scale not given: direction of the effect not stated beside the values
# Study Conditions: 30 µM
Readout Label: Percent Effect (%)
Answers are plain numbers, in %.

Would you please look over these solved cases?
[[record]]
compound = "Cc1c(I)cccc1C(=O)NCC1(CO)CC1"
readout_label = "Percent Effect"
observed_measurement = 0.747

[[record]]
compound = "Cc1cc(C)n(CC2CCCN2C(=O)CCCNc2ncccn2)n1 (configuration not stated)"
readout_label = "Percent Effect"
observed_measurement = -2.92

[[record]]
compound = "CCN(C(=O)Nc1cccnc1OC)C1CC1"
readout_label = "Percent Effect"
observed_measurement = -1.21


Give Percent Effect for each of the items listed below.
1. COCc1cc(NCCc2ccc(F)cc2)n2nccc2n1
2. CCN1C[C@H]2CCN(C(=O)NC3CCCC3)CC[C@H]2S1(=O)=O
3. Cn1ccnc1CNC(=O)N1CCCC(Cc2nccn2C)C1 (configuration not stated)
4. NC(=O)c1ccc(S(=O)(=O)NC2CCN(Cc3ccccc3)C2=O)cc1 (configuration not stated)

4.6
-0.232
0.605
-5.17

Give Percent Effect for each of the items listed below.
1. CC(C)c1n[nH]c(C2CN(C(=O)c3cccc4cn[nH]c34)CCO2)n1 (configuration not stated)
2. CC(C)(N)C(=O)N1CCCC1c1cncc(Oc2ccc(F)cc2)n1 (configuration not stated)
3. Cc1ccc(C(=O)NS(=O)(=O)c2cc(Cl)ccc2Cl)c(=O)[nH]1

[7.47, -3.75, 0]

* * *

# Test System: Aspartate--tRNA(Asp/Asn) ligase (Mycobacterium tuberculosis (strain ATCC 25618 / H37Rv)) (UniProt P9WFW3); further: in the data most compounds retested in dose-response had high values
# Measurement Notes: Assay for Asp RNA synthetase-1 from Mycobacterium tuberculosis
# Type: functional
# Design: scale not given: direction of the effect not stated beside the values
# Study Conditions: 30 µM
For each entry below, report its Percent Effect value.
Answer shape: numeric part, then the unit.

Would you please look over these solved cases?
[[record]]
compound = "CC(C#N)CSc1ccccc1NCC(=O)Nc1ccc(F)cc1 (stereo not given)"
readout_label = "Percent Effect"
observed_measurement = "2.19%"

[[record]]
compound = "Cc1nccnc1CN1CCC2(CCCN(C3CCOCC3)C2=O)C1 (stereo not given)"
readout_label = "Percent Effect"
observed_measurement = "2.6%"

[[record]]
compound = "CC(C)n1[nH]c(=O)c2c1NC(=O)CC2c1ccc2ncccc2c1 (stereo not given)"
readout_label = "Percent Effect"
observed_measurement = "-3.5%"

[[record]]
compound = "Cc1nn(C)c(N(C)C)c1CNCc1cccnc1-n1cncn1"
readout_label = "Percent Effect"
observed_measurement = "-4.35%"

[[record]]
compound = "CCN1CCN(Cc2ccnc(-c3cccnc3)n2)CC1"
readout_label = "Percent Effect"
observed_measurement = "-0.64%"


Give Percent Effect for each of the items listed below.
1. CCc1nc(CN2CCCN(C(=O)CCc3ccco3)CC2)cs1
2. CCc1[nH]ncc1C(=O)N1CCCN(Cc2cnn(C)c2)CC1
3. O=C(C1CCOC1)N1CC[C@@H](O)[C@@H]1Cc1ccccc1 (stereo not given in full)
4. Cc1nc(-c2ccccc2F)sc1C(=O)N1CCN(C)CC1
5. CC(=O)N1CCN(Cc2csc(-c3cnn(C)c3)n2)CC1

1: -4.26%; 2: -0.259%; 3: -2.71%; 4: 1.4%; 5: -1.03%
